test: Half life in dog at 0.2 mg/kg, po; type: ADME, organism-based, Canis lupus familiaris; design: dose 0.2 mg/kg, route oral; conditions: in vivo
Classification field: TRUE = half-life at or over 4 h; FALSE = half-life under 4 h.

Reference set (2 entries):
1. COc1ccc(-n2nc(C(N)=O)c3c2C(=O)N(c2ccc(-c4ccccc4CN(CCO)CCO)cc2)CC3)cc1 | FALSE
2. CCN(CC)Cc1ccccc1-c1ccc(N2CCc3c(C(N)=O)nn(-c4ccc(OC)cc4)c3C2=O)cc1 | FALSE

Check this molecule for half-life at or above 4 h: COc1ccc(-n2nc(Cn3ccnn3)c3c2C(=O)N(c2ccc(-c4ccccc4CN4CC[C@@H](O)C4)cc2)CC3)cc1
FALSE

Check this molecule for half-life at or above 4 h: COc1ccc(-n2nc(C(N)=O)c3c2C(=O)N(c2ccc(-c4ccccc4CN4CCCC4)cc2)CC3)cc1
FALSE

Check this molecule for half-life at or above 4 h: COc1ccc(-n2nc(Cn3cnnn3)c3c2C(=O)N(c2ccc(-c4ccccc4CN4CC[C@@H](O)C4)cc2)CC3)cc1
FALSE

Check this molecule for half-life at or above 4 h: CNCc1ccccc1-c1ccc(N2CCc3c(C(N)=O)nn(-c4ccc(OC)cc4)c3C2=O)cc1
TRUE

Check this molecule for half-life at or above 4 h: COc1ccc(-n2nc(C(N)=O)c3c2C(=O)N(c2ccc(-c4ccccc4CN(C)C)cc2)CC3)cc1
FALSE

Check this molecule for half-life at or above 4 h: COc1ccc(-n2nc(C(N)=O)c3c2C(=O)N(c2ccc(-c4ccccc4CN4CC[C@@H](O)C4)cc2)CC3)cc1
TRUE

Check this molecule for half-life at or above 4 h: Nc1noc2ccc(-n3nc(C(F)(F)F)c4c3C(=O)N(c3ccc(-c5ccccc5CN5CC[C@@H](O)C5)cc3)CC4)cc12
TRUE

====

Listing: fraction unbound of selected molecules
assay: Protein binding in human serum by equilibrium dialysis; format: ADME, cell-free; conditions: read-out: PB (converted)
Kindly provide the number alone.

1. Nc1noc2ccc(-n3nc(C(F)(F)F)c4c3C(=O)N(c3ccc(-c5ccccc5CN5CC[C@@H](O)C5)cc3)CC4)cc12 | 0.03

Read the next record carefully.
Which fraction unbound value belongs to CN(C)Cc1nccn1-c1ccc(NC(=O)c2cc(C(F)(F)F)nn2-c2ccc3onc(N)c3c2)c(F)c1 [RAZAXABAN] ?
0.09

====

test: Volume of distribution at steady state in dog at 0.4 mg/kg, iv and 0.2 mg/kg, po; assay type: ADME, organism-based, Canis lupus familiaris; conditions: in vivo, read-out: Vdss
Experimental Endpoint: Vd

1. Nc1noc2ccc(-n3nc(C(F)(F)F)c4c3C(=O)N(c3ccc(-c5ccccc5CN5CC[C@@H](O)C5)cc3)CC4)cc12 | 1.6 L/kg
2. COc1ccc(-n2nc(C(N)=O)c3c2C(=O)N(c2ccc(-c4ccccc4CN4CC[C@@H](O)C4)cc2)CC3)cc1 | 1.6 L/kg
3. COc1ccc(-n2nc(C(N)=O)c3c2C(=O)N(c2ccc(N(C)C(C)=O)cc2)CC3)cc1 | 1.7 L/kg

Read the next record carefully.
Which Vd value belongs to COc1ccc(-n2nc(Cn3cnnn3)c3c2C(=O)N(c2ccc(-c4ccccc4CN4CC[C@@H](O)C4)cc2)CC3)cc1 ?
3.7 L/kg
